Measured values drawn from PubChem BioAssay (NCI) for this set.

- System: OVCAR-3 ovarian
- assay_details: NCI tumour cell line growth inhibition, 48 h
Exercise: state measured TGI for each of the compounds provided.

Can you look up the measured TGI of COC1OC(C)C(OC(=O)C(C)(C)C)C(OS(=O)(=O)c2ccc(C)cc2)C1OS(=O)(=O)c1ccc(C)cc1 (stereo not drawn) for me?
> 100 µM

Now the same for O=C(Nc1ccc(Cl)cc1)Oc1ccc(C(=S)Nc2ccc(Br)cc2)cc1
54.5 µM

Ok, now O=C(/C=C/c1ccc(OCc2ccccc2)c(OCc2ccccc2)c1)OCc1ccccc1
> 100 µM

###

So I've got a bunch of compounds here, and I need their TGI values.
- Tested on: DU-145 prostate
- assay_details: NCI tumour cell line growth inhibition, 48 h

State the recorded TGI for this entry: O=S(=O)(/N=C(\NO)Nc1ccc(Cl)cc1)c1cc2ccccc2o1
> 100 µM

And for COc1ccc2[nH]c(C(=O)N3CCN(C(=O)OCc4ccc5c(Br)cc(Br)c(O)c5n4)CC3)cc2c1 ?
1.37 µM

// query: CCC(=O)Oc1cc(/C=C/C(=O)O[C@H]2C[C@H]3CN4CCc5c([nH]c6cc(OC)ccc56)[C@@H]4C[C@@H]3[C@@H](C(=O)OC)[C@@H]2OC)ccc1OC
> 100 µM

Could you do the same for CC1(C)CSCC(C)(C)C(=N/N)/C1=N\N , please?
> 100 µM

Also, Cc1ccncc1N1CCN(c2ccnc(Cl)c2)C1=O please.
> 100 µM

Now give it for CC(C)(C)c1ccc(-n2c3nc(=O)n(-c4ccccc4C(F)(F)F)c(=O)c-3cc3ccccc32)cc1 too.
> 100 µM

Again, but for Cc1ccc(-n2c(C)n[nH]c2=O)cc1
> 100 µM

// same read-out, input: COc1ccc2oc(=O)cc(C3c4ccc([nH]4)C(c4cc(=O)oc5ccc(OC)cc45)c4ccc([nH]4)C(c4cc(=O)oc5ccc(OC)cc45)c4ccc([nH]4)C(c4cc(=O)oc5ccc(OC)cc45)c4ccc3[nH]4)c2c1 (centres undefined)
4.75 µM

Next record, please: Cc1nc2c(n1-c1ccc(Br)cc1)C(=O)c1ccccc1C2=O
> 100 µM

Then this compound: COc1cc(/C=C2\CCC(C)C3=C(c4cc(OC)c(OC)c(OC)c4)C(C#N)=C(N)OC32)cc(OC)c1OC (centres undefined)
> 100 µM

Repeat for the following compound: CN(C)c1ccc(/C=C2\N=C(N/N=C/c3ccc(N(C)C)cc3)NC2=O)cc1
96 µM

Please do the same for Clc1ccc(Cl)c(N=Nc2cc3c4c(c2)CCCN4CCC3)c1 as well.
> 10 µM

Can you handle C[C@]12CC[C@@H]3c4ccc(OS(N)(=O)=O)cc4CC[C@H]3[C@@H]1CCC2=O next?
> 100 µM

Record: CN1CCN(Cn2nc(COc3ccc(Cl)cc3)n(/N=C/c3ccc(-c4ccc(Cl)cc4Cl)o3)c2=S)CC1
25 µM

Now consider NC(Cc1ccc(OCc2ccccc2)cn1)C(=O)OCc1ccccc1 (centres undefined) .
> 100 µM

What about COC(=O)N1c2ccc3c(nc(Cc4ccccc4)n3[C@H]3CCC[C@H](C(=O)O)C3)c2CC[C@@H]1C ?
> 100 µM

Now try COc1ccc(-c2nc3cc(F)ccc3s2)cc1O .
> 100 µM

And what about the compound O=C(c1c(Cl)cc(Cl)cc1Cl)N(Cc1cccnc1)C(=S)N(Cc1cccnc1)C(=O)c1c(Cl)cc(Cl)cc1Cl ?
17.2 µM

Same question, Cc1cccc(N2C(=O)C3c4[nH]c5ccccc5c4C4CCC(C(C)(C)C)CC4C3C2=O)c1C (centres undefined) this time
> 100 µM
